Every entry's value here was drawn from patent US7741359B2.

# Assay Procedure: Incidence of gastric damage at the end of the leukocyte adherence experiment
# Conditions Used: intragastric 30 μmol/kg; end of experiment
Assay Metric: Percent Incidence of Gastric Damage

Report Percent Incidence of Gastric Damage for Cc1ccc(Nc2c(F)cccc2Cl)c(CC(=O)Oc2ccc(C(N)=S)cc2)c1
0%

Read off the recorded Percent Incidence of Gastric Damage for COc1ccc2c(c1)c(CC(=O)Oc1ccc(C(N)=S)cc1)c(C)n2C(=O)c1ccc(Cl)cc1
0%

# return recorded Percent Incidence of Gastric Damage for input O=C(Cc1ccccc1Nc1c(F)cccc1Cl)Oc1ccc(-c2cc(=S)ss2)cc1
0%

====

# Assay Procedure: Incidence of gastric damage at the end of the leukocyte adherence experiment
# Conditions Used: intragastric 30 μmol/kg; end of experiment
Assay Metric: Percent Incidence of Gastric Damage (%)
Value expressed in %; do not type the unit.

| Molecule | Percent Incidence of Gastric Damage [%] |
| --- | --- |
| COc1ccc2c(c1)c(CC(=O)Oc1ccc(-c3cc(=S)ss3)cc1)c(C)n2C(=O)c1ccc(Cl)cc1 [Compound IV] | 20 |
| CC(=O)Oc1ccccc1C(=O)Oc1ccc(-c2cc(=S)ss2)cc1 [Compound I] | 20 |
| O=C(Cc1ccccc1Nc1c(Cl)cccc1Cl)Oc1ccc(-c2cc(=S)ss2)cc1 [Compound II] | 0 |
| CC(=O)Oc1ccccc1C(=O)Oc1ccc(C(N)=S)cc1 [Compound XVI] | 0 |

Continue with the next molecule.
Quote Percent Incidence of Gastric Damage reported for NC(=S)c1ccc(OC(=O)Cc2ccccc2Nc2c(Cl)cccc2Cl)cc1 [Compound XVII] please.
20
